Below are IC50 measurements against HPK1 (Homo sapiens (Human)) drawn from the literature.

Here are 4 compounds together with their reported answers.
Cc1cccc(F)c1-n1nc2c(-c3ccc(N4CCN(CC(F)F)CC4)cc3)n[nH]c2cc1=O = 50 to 500 nM
CN1CCN(c2ccc(-c3n[nH]c4cc(=O)n(-c5ccccc5Cl)nc34)cc2)CC1 = 50 to 500 nM
Cn1ccc2c(-c3ccc(Nc4ccc(N5CC[C@H](O)C5)cn4)c4c3CNC4=O)ccnc21 = < 100 nM
CO[C@@H]1CN(c2c(NC(=O)c3ccc(=O)n(-c4c(F)cccc4F)n3)ccc3c2cnn3C(C)C)C[C@H]1N (stereo in doubt) = < 100 nM

Query: Find the recorded IC50 belonging to Cc1nc2c(N3CC[C@H](N)C3)c(NC(=O)c3ccc(=O)n(-c4c(F)cccc4F)n3)ccc2n1C1CCN(C)CC1 and report it.
Result: < 100 nM

Query: Requested field: IC50. Item: COCC1CN(c2ccc3cnc(Nc4cc5c(cc4OC)CCN(C)C5)nc3c2)C1
Result: 520 nM

Query: # input compound: CCN(C)C(=O)c1c[nH]c2ncc(-c3cccc(N4CCCNC4=O)c3)c(Cl)c12 ; wanted: its IC50
Result: > 1000 nM

----------
Study the reported IC50 values for UniProt Q92918 given below; they originate from different publications.

Use these answered entries as a reference point.
CN[C@H]1CCCN(c2ccc(Nc3ccc(-c4ccnc5c4ccn5C)c4c3C(=O)NC4)nc2)C1 = < 100 nM
COc1cccc(F)c1-c1cccc(C(=O)Nc2ccc3c(nc(C)n3C)c2N2C[C@@H]3C[C@H]2CN3)[n+]1[O-] = < 100 nM
NC(=O)c1cnc(Nc2ccc(F)c(Cl)c2)nc1Nc1cccc2c1CCNC2=O = 580 nM
C[C@@H]1CN(c2c(NC(=O)c3ccc(=O)n(-c4c(F)cccc4F)n3)ccc3c2cnn3C2CCCCC2)C[C@@H]1N = < 100 nM
COc1cc(OC)cc(-c2cc(Nc3ccc(N4CCC(O)CC4)cn3)c3c(=O)[nH]ccc3n2)c1 = ≤ 100 nM

Query: Quick one: IC50 for O=C1NCc2c(-c3cnc4cc(F)ccn34)ccc(Nc3ccc(N4CCC(CN5CCOCC5)CC4)cn3)c21 ?
Result: < 100 nM

Query: Which IC50 is reported for this molecule? CN(C)Cc1nc(Nc2ccc(-c3cnc4cc(F)ccn34)c3c2C(=O)NC3)ccc1C1(O)CCOCC1
Result: < 100 nM

Query: GET /values?readout=IC50&item= NC(=O)c1cnc(Nc2ccc(C3CC3)cc2)nc1Nc1cccc2c1CCNC2=O
Result: 14 nM

----------
For reference, the following IC50 results for HPK1 (Homo sapiens (Human)) were taken from various sources.

Here is how some molecules turned out for IC50.
COc1cc2c(cc1Nc1ncc3ccc(-c4cncc(CN)c4)cc3n1)CNCC2 = 3.25 nM
C[C@H](c1ccc(Nc2ccc(-c3cnc4cnccn34)c3c2C(=O)NC3)nc1CN(C)C)C1CCOCC1 = ≤ 100 nM
Cn1cnc2c(-c3ccc(Nc4ccc(N5CCC(O)CC5)cn4)c4c3CNC4=O)ccnc21 = < 100 nM
C/C(Nc1ccn(CC[C@H](C)O)n1)=C1/C(=O)Nc2cnc(-c3cnccc3C)cc21 = < 50 nM
Cc1cc(-c2cnc(N)c(OCc3cccnc3)n2)cc2c1CCN(C)C2 = 157 nM

Query: Any idea what IC50 came out for COc1cc(S(N)(=O)=O)ccc1Nc1ncc2c(N)c(F)c(-c3cnc4c(c3C)NCCO4)cc2n1 on HPK1 (Homo sapiens (Human))?
Result: 48.1 nM

Query: Quick check: IC50 on HPK1 (Homo sapiens (Human)), item C[C@@H]1CN(c2c(NC(=O)c3ccc(=O)n(-c4c(F)cccc4F)n3)ccc3c2cnn3[C@H]2CCCOC2)C[C@@H]1N ?
Result: < 100 nM

Query: Give HPK1 (Homo sapiens (Human)) IC50 for CN1CCN(c2ccc(Nc3ccc(-c4cccnc4)c4c3C(=O)NC4)nc2)CC1
Result: < 1000 nM

----------
pIC50: −log10 of the molar value.
Compiled notes: published pIC50 values involving HPK1 (Homo sapiens (Human), UniProt Q92918).

O=C(c1ccc(-c2cc(Nc3ccc(N4CCC(O)CC4)cn3)c3c(=O)[nH]ccc3n2)c(F)c1)N1CCCC(O)C1 (stereo not drawn) = < 6.00
COc1cc2c(cc1Nc1ncc(C(N)=O)c(Nc3ccccc3Cc3ccccc3)n1)CN(C)CC2 = 7.51

Query: # value lookup — system HPK1 (Homo sapiens (Human), UniProt Q92918), readout pIC50, item COCC1CC(c2ccc(Nc3ccc(-c4cnc5cc(F)ccn45)c4c3C(=O)NC4)nc2CN(C)C)CCO1 (stereo not drawn)
Result: ≥ 7.00

Query: API: value(readout= pIC50, system= HPK1 (Homo sapiens (Human), UniProt Q92918), query= Cc1cc(-c2cnc3[nH]cc(-c4ccc(C(=O)N5CC6(COC6)C5)cc4)c3n2)cc2c1N1CCN(C)C[C@H]1CC2 )
Result: 7.77

Query: Request - read-out pIC50 | tested on HPK1 (Homo sapiens (Human), UniProt Q92918) | compound COc1cccc(F)c1-c1nccc(C(=O)Nc2ccc3c(nc(C)n3C)c2N2CC[C@H](N)C2)c1F
Result: > 7.00

Query: Give the reported pIC50 for CC(O)c1c[nH]c(=O)c2c(Nc3ccc(N4CCC(O)CC4)cn3)cc(-c3c(F)cccc3F)nc12 (stereo not drawn) (system: HPK1 (Homo sapiens (Human), UniProt Q92918)).
Result: 6.00 to 7.00

Query: API: value(readout= pIC50, system= HPK1 (Homo sapiens (Human), UniProt Q92918), query= Cc1c(-c2cc3nc(Nc4ccccc4)ncc3c(N)c2F)cnc2c1NCCO2 )
Result: 9.56

Query: Observed pIC50 on HPK1 (Homo sapiens (Human), UniProt Q92918) for COCCn1ncc2c(N3CCC[C@@H](N)C3)c(NC(=O)c3ccc(=O)n(-c4c(F)cccc4F)n3)cc(F)c21 , please.
Result: > 7.00

Query: Write down the reported pIC50 of CN1CCN(c2ccc(Nc3cnc(-c4c[nH]c5cc(F)ccc45)c4c3C(=O)NC4)nc2)CC1 , test system: HPK1 (Homo sapiens (Human), UniProt Q92918).
Result: 6.00 to 7.00

----------
pIC50: −log10 of the molar value.
Dear all, I have gathered published pIC50 values for HPK1 (Homo sapiens (Human), UniProt Q92918); the list follows.

Solved cases (3 shown):
COc1cccc(F)c1-n1nc2c(-c3cc4c(cc3F)CCN(C)C4)n[nH]c2cc1=O = 6.30 to 7.30
N#Cc1ccncc1-c1ccc(NC(=O)c2ccc(=O)n(-c3c(F)cccc3Cl)n2)c(N2C[C@@H](N)C[C@H]2CO)c1 = > 7.00
CN1CCN(c2ccc3nc(-c4c(O)c5sccc5[nH]c4=O)[nH]c3c2)CC1 = ≥ 7.30

Could you now consider this next compound?
Query: Field request: pIC50 | item: CN1CCN(c2ccc(Nc3ccc(-c4ccnc(N5CCC6(CCCO6)CC5)c4)c4c3C(=O)NC4)nc2)CC1
Result: 5.30 to 6.00

----------
# IC50 against HPK1 (Homo sapiens (Human)), merged from multiple literature sources

Reference set, count: 8
CN1CCN2c3ccc(-c4cnc5[nH]nc(-c6ccc(C(=O)N7CC(N(C)C)C7)cc6)c5n4)cc3OCC2C1 (stereo not shown) = ≤ 10 nM
Cn1cc(Nc2ncc(C(N)=O)c(Nc3cccc4c3CCNC4)n2)c(=O)[nH]1 = 111 nM
NC(=O)c1cnc(Nc2cnn(CC(F)(F)F)c2)nc1Nc1cccc2c1CCNC2=O = 19.5 nM
NC(=O)c1ncc(Nc2ccc(N3CCNCC3)cn2)c2c1CNC2=O = 1000 to 5000 nM
COc1cccc(F)c1-c1cc2c(cn1)NC(=O)/C2=C(/C)Nc1cnn(C)c1 = < 50 nM
CN(C)Cc1nc(Nc2cnc(-c3ccnc4c3ccn4C)c3c2C(=O)NC3)ccc1O[C@@H]1CCOC1 = < 100 nM
COc1cc2c(cc1Nc1ncc(C(N)=O)c(NC3CCc4c(F)ccc(F)c43)n1)CN(C)CC2 (stereo not shown) = 2.71 nM
Cc1[nH]c2ccccc2c1-c1ncc(Nc2ccc(N3CCN(C)CC3)cn2)c2c1CNC2=O = 100 to 1000 nM

Query: Lab request: please report IC50 under test system HPK1 (Homo sapiens (Human)) for N#Cc1ccncc1-c1ccc(NC(=O)c2ccc(=O)n(-c3c(F)cccc3F)n2)c(N2C[C@H](N)C[C@H]2CO)c1
Result: < 100 nM

Query: Please state recorded IC50 (tested on HPK1 (Homo sapiens (Human))) of Cn1ccc2c(-c3ccc(Nc4ccc(N5CC6(CC(O)C6)C5)cn4)c4c3CNC4=O)ccnc21
Result: < 100 nM

Query: # value lookup — system HPK1 (Homo sapiens (Human)), readout IC50, item CCn1cc(Nc2ncc3c(N)c(F)c(-c4cnc5c(c4C)NCCO5)cc3n2)cn1
Result: 0.076 nM

Query: What IC50 appears in the records for this compound with HPK1 (Homo sapiens (Human))? COc1cc2c(cc1Nc1ncc(C(N)=O)c(Nc3cc(F)ccc3F)n1)CN(C)CC2
Result: 0.55 nM

Query: Entry Cn1cc(Nc2ncc(C(N)=O)c(Nc3cccc4c3CCNC4)n2)cn1 , system HPK1 (Homo sapiens (Human)): what IC50 was measured?
Result: 1.86 nM

Query: Notebook: pull reported IC50 for HPK1 (Homo sapiens (Human)), entry COc1cccc(F)c1-n1cccc(C(=O)Nc2cc(F)ccc2N2C[C@H]3C[C@@H]2CN3)c1=O
Result: < 100 nM

Query: Please state recorded IC50 (tested on HPK1 (Homo sapiens (Human))) of CCCc1cc(Nc2ccc(N3CCC(O)CC3)cn2)c2c(=O)[nH]cnc2n1
Result: 100 to 1000 nM

Query: Value wanted: IC50 (HPK1 (Homo sapiens (Human))) of entry CN(C)Cc1nc(Nc2cnc(-c3cccc4c3ccn4C)c3c2C(=O)NC3)ccc1[C@H]1CCOC1
Result: < 100 nM
